Below is a list of entries, each paired with its recorded neutralization IC50 value.
Molecular target: Env of HIV-1 strain 3365.v2.c20 (HIV-1)
Experiment: cell-based or functional assay

[Q] // lookup neutralization IC50 for γ3κ5 (antibody, V domains shown) VH: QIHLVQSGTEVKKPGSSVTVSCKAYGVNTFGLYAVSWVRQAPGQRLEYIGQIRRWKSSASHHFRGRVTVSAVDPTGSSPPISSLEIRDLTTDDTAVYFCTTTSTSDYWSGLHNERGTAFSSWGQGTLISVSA VL: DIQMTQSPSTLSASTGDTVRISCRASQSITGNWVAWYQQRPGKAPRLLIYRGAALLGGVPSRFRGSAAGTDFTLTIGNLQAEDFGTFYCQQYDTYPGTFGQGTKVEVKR
[A] > 15 µg/mL

[Q] Entry to check: γ46κ18 (antibody, V domains shown) VH: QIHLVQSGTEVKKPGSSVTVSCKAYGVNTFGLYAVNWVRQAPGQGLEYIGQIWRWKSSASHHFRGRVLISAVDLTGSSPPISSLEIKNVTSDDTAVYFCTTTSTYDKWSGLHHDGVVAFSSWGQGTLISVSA VL: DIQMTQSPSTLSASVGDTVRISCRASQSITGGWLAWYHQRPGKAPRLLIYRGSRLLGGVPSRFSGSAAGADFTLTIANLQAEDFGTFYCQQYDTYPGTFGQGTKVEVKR
[A] > 15 µg/mL
